# Test system: NCI-H460 lung
# assay protocol: NCI tumour cell line growth inhibition, 48 h
We begin with a simple list: items and their reported TGI.

Answered cases to consult:
S=c1nc(COc2ccc(Cl)cc2Cl)[nH][nH]1 ... > 100 µM
Fc1ccc(N=C/C=C/Nc2ccc(F)cc2)cc1 ... 24.7 µM
COc1cc2oc(=O)cc(C)c2cc1O ... > 100 µM
O=C1c2ccccc2C(=O)c2sc(Nc3ccccc3C(F)(F)F)nc21 ... 58.1 µM
Oc1ccc(Cl)cc1-c1cc(-c2ccccc2)nc(NCN2CCCCC2)n1 ... > 100 µM

Consider the record given below.
Requested read-out: TGI. Entry: `Cc1cc(S(=O)(=O)/N=C/N(C)C)c(SC(=O)c2ccc(Cl)cc2)cc1Cl` > 100 µM
